The molecules listed here are annotated with their pEC50.
Target: hTLR8 (human Toll-like receptor 8) (Homo sapiens, UniProt Q9NR97)
Sequence (Q9NR97 27-1041): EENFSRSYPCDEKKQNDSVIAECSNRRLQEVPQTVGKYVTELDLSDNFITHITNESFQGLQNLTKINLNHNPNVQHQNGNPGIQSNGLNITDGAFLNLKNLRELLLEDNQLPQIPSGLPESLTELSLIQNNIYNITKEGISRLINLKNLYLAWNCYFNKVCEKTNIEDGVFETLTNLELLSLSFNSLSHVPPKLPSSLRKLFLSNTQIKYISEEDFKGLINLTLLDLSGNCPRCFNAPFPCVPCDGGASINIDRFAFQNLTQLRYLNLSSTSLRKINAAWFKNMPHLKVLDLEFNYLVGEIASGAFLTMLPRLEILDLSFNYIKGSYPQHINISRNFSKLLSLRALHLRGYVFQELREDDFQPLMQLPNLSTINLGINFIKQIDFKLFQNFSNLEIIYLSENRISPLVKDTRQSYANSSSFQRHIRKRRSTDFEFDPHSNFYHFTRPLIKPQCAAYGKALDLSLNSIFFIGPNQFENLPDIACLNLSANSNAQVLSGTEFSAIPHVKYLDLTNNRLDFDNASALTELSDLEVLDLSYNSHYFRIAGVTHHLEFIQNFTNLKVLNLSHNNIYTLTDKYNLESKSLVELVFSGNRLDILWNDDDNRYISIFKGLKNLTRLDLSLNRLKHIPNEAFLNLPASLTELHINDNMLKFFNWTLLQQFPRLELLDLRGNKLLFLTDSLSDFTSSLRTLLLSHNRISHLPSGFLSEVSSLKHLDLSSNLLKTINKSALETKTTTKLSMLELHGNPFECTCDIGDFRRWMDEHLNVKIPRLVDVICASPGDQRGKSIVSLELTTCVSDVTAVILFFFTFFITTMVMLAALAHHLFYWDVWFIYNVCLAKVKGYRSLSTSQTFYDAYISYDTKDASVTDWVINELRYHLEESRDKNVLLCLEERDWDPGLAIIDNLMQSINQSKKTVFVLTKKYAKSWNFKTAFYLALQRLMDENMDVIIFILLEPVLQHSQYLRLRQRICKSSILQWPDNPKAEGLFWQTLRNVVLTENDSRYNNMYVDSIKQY
Assay: hTLR8 cell assay (HEK-Blue hTLR8 reporter cells)
Details: 24 hours, OD 650 nm
pEC50: −log10 of the molar value.

Task: Could you tell me which pEC50 is on file for CCCC(C)c1nc2c(N)nc3cc(Cc4ccccc4)ccc3c2n1CC(C)(C)OCCN (racemic) ?
Output: > 5.30

###

Target: UniProtKB Q9NYK1
Sequence (Q9NYK1 27-1049): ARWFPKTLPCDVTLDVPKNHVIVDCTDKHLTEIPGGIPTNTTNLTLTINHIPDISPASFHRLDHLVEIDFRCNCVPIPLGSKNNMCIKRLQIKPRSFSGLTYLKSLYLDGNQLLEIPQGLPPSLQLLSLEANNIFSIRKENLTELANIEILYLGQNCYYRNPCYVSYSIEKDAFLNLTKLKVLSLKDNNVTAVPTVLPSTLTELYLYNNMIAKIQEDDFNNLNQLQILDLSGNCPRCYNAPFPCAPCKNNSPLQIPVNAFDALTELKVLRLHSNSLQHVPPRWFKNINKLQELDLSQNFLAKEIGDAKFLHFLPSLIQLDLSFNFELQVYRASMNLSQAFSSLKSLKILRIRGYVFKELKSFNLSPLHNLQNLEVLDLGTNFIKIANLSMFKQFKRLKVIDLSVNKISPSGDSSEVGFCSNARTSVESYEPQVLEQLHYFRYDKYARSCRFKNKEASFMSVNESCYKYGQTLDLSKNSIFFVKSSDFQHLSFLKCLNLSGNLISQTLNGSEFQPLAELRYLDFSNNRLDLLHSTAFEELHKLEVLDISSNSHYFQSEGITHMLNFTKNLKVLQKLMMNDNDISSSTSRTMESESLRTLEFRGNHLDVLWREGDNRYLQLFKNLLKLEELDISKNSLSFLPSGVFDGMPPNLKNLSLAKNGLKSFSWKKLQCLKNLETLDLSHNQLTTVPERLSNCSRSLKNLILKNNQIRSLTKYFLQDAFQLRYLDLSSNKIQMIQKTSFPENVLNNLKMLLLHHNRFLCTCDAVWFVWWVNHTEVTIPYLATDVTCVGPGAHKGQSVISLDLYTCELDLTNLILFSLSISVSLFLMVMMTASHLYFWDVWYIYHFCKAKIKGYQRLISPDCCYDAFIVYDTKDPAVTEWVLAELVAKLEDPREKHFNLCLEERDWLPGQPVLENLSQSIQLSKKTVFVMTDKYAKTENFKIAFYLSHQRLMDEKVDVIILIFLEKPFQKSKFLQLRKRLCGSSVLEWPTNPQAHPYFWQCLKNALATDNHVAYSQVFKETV
Assay: hTLR7 cell assay (HEK-Blue hTLR7 reporter cells)
Details: 24 hours, OD 650 nm
Experimental: The payload compounds of Formula (II′) were assayed to evaluate their agonistic activity on hTLR7 (human Toll-like receptor 7) and hTLR8 (human Toll-like receptor 8). Reporter cells lines (HEK-Blue hTLR7 and HEK-Blue hTLR8) were obtained from InvivoGen. […] Cells were counted and diluted in the HEK-Blue Detection media at 50000 cells/mL and incubated for 24 hours at 37° C., in a 5% CO2 humidified incubator. […] Optical density at 650 nm was analyzed using an Envision (Perkin Elmer) plate reader.
property_measured: EC50

Worked set:
CCOCc1nc2c(N)nc3cc(Cc4ccc(CCN5CCCC5)cc4)ccc3c2n1CC(C)(C)OCCN    > 10 µM
CCCCc1nc2c(N)nc3cc(Cc4ccc(F)c(CN)c4)ccc3c2n1CC(C)(C)O    < 1 µM
CCOCc1nc2c(N)nc3cc(Cc4ccccc4)ccc3c2n1CC(C)(C)NCCCN    > 10 µM
CCCC(C)c1nc2c(N)nc3cc(Cc4ccccc4)ccc3c2n1CC(C)(C)OCCN (racemic)    > 10 µM
CCOCc1nc2c(N)nc3cc(Cc4ccccc4)ccc3c2n1CCCCN    > 10 µM

Task: Could you tell me which EC50 is on file for `CC(C)(O)Cn1c(CCCC(F)(F)F)nc2c(N)nc3cc(Cc4cccc(CN)c4)ccc3c21` ?
Output: < 1 µM

Task: Could you tell me which EC50 is on file for `CCOCc1nc2c(N)nc3cc(Cc4ccc(CCN)cc4)ccc3c2n1CC(C)(C)OCCN1CCCC1` ?
Output: 1 to 10 µM

Task: Could you tell me which EC50 is on file for `CCOCc1nc2c(N)nc3cc(Cc4ccc(CCN(C)C)cc4)ccc3c2n1CC(C)(C)OCCN` ?
Output: > 10 µM
